experimentSummary: Ice recrystallization inhibition (IRI) splat assay, MLGS from DFOM images
conditionParameters: ice recrystallized 30 minutes at -6 °C
Residues, ends and D or L forms follow the SMILES beside them. *: point of attachment. Fmoc = O=C(OCC1c2ccccc2-c2ccccc21)*

{"molecule": "CC(NC(=O)C(Cc1ccccc1)NC(=O)C(Cc1ccccc1)NC(=O)OCC1c2ccccc2-c2ccccc21)C(N)=O (stereo not drawn) [Fmoc-FFA] (Fmoc-Phe-Phe-Ala-NH2; configuration not given here)", "IRI effect": "had the IRI effect"}
{"molecule": "CC(O)C(NC(=O)C(Cc1ccccc1)NC(=O)C(Cc1ccccc1)NC(=O)OCC1c2ccccc2-c2ccccc21)C(N)=O (stereo not drawn) [Fmoc-FFT] (Fmoc-Phe-Phe-Thr-NH2; configuration not given here)", "IRI effect": "had the IRI effect"}
{"molecule": "CC(C)C(NC(=O)C(Cc1ccccc1)NC(=O)C(Cc1ccccc1)NC(=O)OCC1c2ccccc2-c2ccccc21)C(N)=O (stereo not drawn) [Fmoc-FFV] (Fmoc-Phe-Phe-Val-NH2; configuration not given here)", "IRI effect": "had the IRI effect"}
